Biological target: P97 (Homo sapiens (Human), UniProt P55072)
Sequence (P55072 whole entry): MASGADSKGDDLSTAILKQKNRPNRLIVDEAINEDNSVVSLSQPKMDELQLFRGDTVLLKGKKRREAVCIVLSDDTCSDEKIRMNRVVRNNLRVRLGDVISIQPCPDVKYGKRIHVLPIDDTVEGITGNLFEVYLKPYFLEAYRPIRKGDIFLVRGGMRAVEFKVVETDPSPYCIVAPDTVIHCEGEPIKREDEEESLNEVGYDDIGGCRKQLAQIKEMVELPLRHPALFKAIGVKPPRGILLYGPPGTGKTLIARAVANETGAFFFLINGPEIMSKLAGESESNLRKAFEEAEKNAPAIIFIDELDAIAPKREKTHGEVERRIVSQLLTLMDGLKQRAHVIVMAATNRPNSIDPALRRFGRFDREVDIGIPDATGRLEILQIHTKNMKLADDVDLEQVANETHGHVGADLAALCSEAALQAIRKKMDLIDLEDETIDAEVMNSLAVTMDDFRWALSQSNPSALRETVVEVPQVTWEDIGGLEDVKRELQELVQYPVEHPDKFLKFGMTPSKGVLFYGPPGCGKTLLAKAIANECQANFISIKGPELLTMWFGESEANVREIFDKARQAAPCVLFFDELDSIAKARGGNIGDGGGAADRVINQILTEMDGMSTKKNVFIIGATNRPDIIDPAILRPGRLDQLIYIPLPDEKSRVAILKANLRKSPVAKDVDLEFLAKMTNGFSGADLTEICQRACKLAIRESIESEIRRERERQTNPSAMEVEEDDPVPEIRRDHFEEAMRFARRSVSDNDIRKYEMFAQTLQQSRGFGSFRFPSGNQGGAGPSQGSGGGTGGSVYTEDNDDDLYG
Assay: P97 Biomolgreen ATPase assay, 200 μM ATP
Assay type: biochemical
Details: P97 Biomolgreen, IC50 (μM)
metric name: IC50 (µM)

compound="[2H]C1([2H])C([2H])([2H])C([2H])([2H])C([2H])(Sc2nnc(COc3ccc(C#CCNCC4(N5CCN(C(C)C)CC5)CCC4)c(C)c3)n2-c2cccnc2)C1([2H])[2H] [Compound 67]" metric_name=IC50 measurement_units=µM measured_result=0.2
compound="[2H]C1([2H])C([2H])([2H])C([2H])([2H])C([2H])(Sc2nnc(COc3ccc(C#CCNC(=O)OC(C)(C)C)c(C)c3)n2-c2cccnc2)C1([2H])[2H] [Compound 46]" metric_name=IC50 measurement_units=µM measured_result=0.19
compound="[2H]C1([2H])C([2H])([2H])C([2H])([2H])C([2H])(Sc2nnc(COc3ccc(C#CC(C)OC(=O)NC(C)C)c(C)c3)n2-c2cccnc2)C1([2H])[2H] (centres unmarked) [Compound 1]" metric_name=IC50 measurement_units=µM measured_result=0.16
compound="[2H]C1([2H])C([2H])([2H])C([2H])([2H])C([2H])(Sc2nnc(COc3ccc(C#CCOC(=O)NC(C)C)c(C)c3)n2-c2cccnc2)C1([2H])[2H] [Compound 23]" metric_name=IC50 measurement_units=µM measured_result=0.032
compound="[2H]C1([2H])C([2H])([2H])C([2H])([2H])C([2H])(Sc2nnc(COc3ccc(C#CCOC(=O)NC)c(C)c3)n2-c2cccnc2)C1([2H])[2H] [Compound 24]" metric_name=IC50 measurement_units=µM measured_result=0.026
